These data points were gathered from the nanobody polyreactivity screen of Harvey et al. (2022).

Assay summary: yeast display, Sf9 membrane polyspecificity reagent, FACS + sequencing; frameworks hold sequencing errors
Quantity name: polyreactivity (PSR sort gate)

The following sequences have reported results that may help.
- Sequence string: "QVQLVESGGRLVQAGGSLRLSCAASGFIFRSYAMGWYRQAPGKERELVAAISSRGGSTSYADSVKGRFTISRDNAKNTVYLQLNSLKPEDTAVYYCNAYQYPGYGNNYWGQGSQVTVSS"
  Value reported: "high polyreactivity"
- Sequence string: "QVQLVESGGGLVQAGGSLRLSCAASGSTFESNAMGWYRQAPGKERELVAAISTSGGSTYYADSVKGRFTISRDNAKNTVYLQMNSLKPEDKAVYYCNAYPEAVRWKYNYWGQGTQVTVSS"
  Value reported: "low polyreactivity"
- Sequence string: "QVQLVESGGGLVQAGGSLRLSCAASGIIFPVYAMGWYRQAPGKERELVAAISSSGSSTYYADSVKGRFTISRDNAKNTVYLQMNSLKPEDTAVYYCAAVRYGLRRMDYWGQGTQVTVSS"
  Value reported: "high polyreactivity"
- Sequence string: "QVQLVESAGGLVQAGGSLRLSCAASGSTFYTYAMGWYRQAPGKERELVAAISWSGGSTYYADSVKGRFTISRDNAKNSVYLQMNSLKPEDTAVYYCAARRVKYISLDYWGQGTQVTVSS"
  Value reported: "low polyreactivity"
- Sequence string: "QVQLVESGGGLVQAGGSLRLSCAASGIIFNYYAMGWYRQAPGKERELVAAITRGGRTNYADSVKGRFTISRDNAKNTVYLQMNSLKPEDTAVYYCNAPAFYTYKSFYAHSGYDYWGQGTQVTVSS"
  Value reported: "high polyreactivity"

Provide polyreactivity (PSR sort gate) for all items below, preserving their order.
1. QVQLVESGGGSVQAGGSLRLSCAASGSTFQYYDMGWYRQAPGKERELVASITGSGDSTYYADSVKGRFTISRDNAKNTVYLQLNSLKPEDTAVYYCAAQNTWSGDYDYWGQGTQVTVSS
2. QVQLVESGGGLVQAGGSLRLSCAASGRIFHFNAIGWYRQAPGKERELFARIDTRGDSTYYADSVKGRFTISRDNAKNTVYLQMNSLKPEDTAVYYCAARGSRDGPYSGYGYWGQGTQVTVSS
3. QVQLVESGGGLVQAGGSLRLSCAASGIIFAVYAMGWYRQAPGKERELVAAISTSGGRTYYADSVKGRFTISRDNAKNTVYLQMNSLKPEDTAVYYCAAEYVGKGTPDDYDYWGQGTQVTVSS
4. QVQLVESGGGLDQAGGSLRLSCAASGSIFRNYAMGWYRQAPGKEREFVAAISGGGGSTYYADSVKGRFTISRDNAKNTVYLQMNSLKPEDTAVYYCARVRYYGALKLYAYDHWGQGTQVTVSS
5. QVQLVESGGGLVQAGGSLRLSCAASGFTFSRNAMGWYRQAPGKERELVAAISQSGGSTYYADSVKGRFTISRDNAKNTVYLQMHSLKPEDTAVYYCAAVGRLARRDYWGQGTQVTVSS

(A)
["low polyreactivity", "low polyreactivity", "high polyreactivity", "high polyreactivity", "high polyreactivity"]

====

Assay summary: yeast display, Sf9 membrane polyspecificity reagent, FACS + sequencing; frameworks hold sequencing errors
Quantity name: polyreactivity (PSR sort gate)

- Sequence string: "QVQLVESGGGLVQAGGSLRLSCAASGRTFYYAMGWYRQAPGKERELVAAISWSGGRTYYADSVKARFTISRDNAKNTVYLQMNSLKPEDTAVYFCAAIYYYSPRDGFIYWGQGTQVTVSS"
  polyreactivity (PSR sort gate): "high polyreactivity"
- Sequence string: "QVQLVESGGGLVQAGGSLRLSCAASGFTFAYYAMGWYRQAPGKERELVAAITRGGGRTFYADSVKGRFTISRDNAKNTVYLQMNSLKPEDTAVYYCAAVKDTTNSRGYGYWGQGTQVTVSS"
  polyreactivity (PSR sort gate): "high polyreactivity"
- Sequence string: "QVQLVESGGGLVQAGGSLRLSCAASGSTFYRNVMGWYRQAPGKERELVAAISSGGSTYYADSVKGRFTISRDNAKNTVYLQMNSLKPEDTAVYYCARRLTREYDYWGQGTQVTVSS"
  polyreactivity (PSR sort gate): "low polyreactivity"
- Sequence string: "QVQLVESGGGLVQAGGSLRLSCAASGSIFGWYAMGWYRQAPGKERELVAAISSSDGSTYYADSVKGRFTISRDNAKNTVYLQMNSLKPEDTAVYYCATDSAFTYAQYDYWGQGTQVTVSS"
  polyreactivity (PSR sort gate): "low polyreactivity"

Please look at the following sequence next.
(Q) Report polyreactivity (PSR sort gate) for `QVQLVESGGGLVQAGGSLRLSCAASGNTFREYTMGWYRQAPGKERELVAGISGSGGRTYYADSVKGRFTISRDNAKNTVYLQMNSLKPEDTAVYYCYARWYYGIGYNYWGQGTQVTVSS`
(A) high polyreactivity
